tested on: Pseudomonas fluorescens; experiment: Antibacterial activity against Pseudomonas fluorescens obtained from complicated skin and skin structure infections by agar dilution method; assay type: functional

Molecule: NCC[C@H](O)C(=O)N[C@@H]1C[C@H](N)[C@@H](O[C@H]2O[C@H](CN)[C@@H](O)[C@H](O)[C@H]2O)[C@H](O)[C@H]1O[C@H]1O[C@H](CO)[C@@H](O)[C@H](N)[C@H]1O [AMIKACIN]
Prefix Operator: >
MIC90 / µg/mL: 128
--
Molecule: O=C(O)c1cn(C2CC2)c2cc(N3CCNCC3)c(F)cc2c1=O [CIPROFLOXACIN]
Prefix Operator: >
MIC90 / µg/mL: 8
--
Molecule: CO/N=C(\C(=O)N[C@@H]1C(=O)N2C(C(=O)[O-])=C(C[N+]3(C)CCCC3)CS[C@H]12)c1csc(N)n1
Prefix Operator: =
MIC90 / µg/mL: 32
--
Molecule: CO/N=C(\C(=O)N[C@@H]1C(=O)N2C(C(=O)O)=C(CSc3nc(=O)c(O)nn3C)CS[C@H]12)c1csc(N)n1 [CEFTRIAXONE]
Prefix Operator: >
MIC90 / µg/mL: 128
--
Molecule: C[C@H]1COc2c(N3CCN(C)CC3)c(F)cc3c(=O)c(C(=O)O)cn1c23.C[C@H]1COc2c(N3CCN(C)CC3)c(F)cc3c(=O)c(C(=O)O)cn1c23.O [LEVOFLOXACIN]
Prefix Operator: =
MIC90 / µg/mL: 8
